measured on: T1, human soluble urokinase plasminogen activator receptor (suPAR) (human, UniProt Q03405 23-303, limits assumed)
T1 construct: Target antigen of the off-rate screen; also called hsuPAR; human suPAR
run description: off-rate (kdis) screen of scFv clones, biosensor (Octet)
endpoint label: koff
State the value, then name its unit.

binder="suPAR_DB01_C09 (scFv, V domains shown, screened as scFv) VH: QVQLVQSGAEVKKPGASVKVSCKASGFNIKDYYIHWVRQAPGQGLEWMGWIDPENGNTIYAQKFQGRVTMTRDTSTSTVYMELSSLRSEDTAVYYCARGYDVDWFVYWGQGTLVTVSS VL: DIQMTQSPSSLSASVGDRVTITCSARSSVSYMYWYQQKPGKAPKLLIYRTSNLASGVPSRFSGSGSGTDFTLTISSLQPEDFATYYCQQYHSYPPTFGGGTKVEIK" endpoint_label=koff measured_value="0.00476 s⁻¹"

Pending binder:
*Q* Request the reported koff associated with suPAR_DB01_F01 (scFv, V domains shown, screened as scFv) VH: QVQLVQSGAEVKKPGASVKVSCKASGYTFTSYYVHWVRQAPGQGLEWMGWIDHENGSTIYAQKFQGRVTMTRDTSTSTVYMELSSLRSEDTAVYYCARGYDVDWFVYWGQGTLVTVSS VL: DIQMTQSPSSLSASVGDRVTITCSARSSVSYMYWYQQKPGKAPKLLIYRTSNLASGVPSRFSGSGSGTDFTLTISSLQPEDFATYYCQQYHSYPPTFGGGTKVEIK
*A* 0.000618 s⁻¹
